Exercise: for every item that follows, state its recorded Kd.
- TARGET: FN-67B89, human fibronectin EDB flanked by its surrounding type III domains (human)
- Sequence (chain, as listed by the source): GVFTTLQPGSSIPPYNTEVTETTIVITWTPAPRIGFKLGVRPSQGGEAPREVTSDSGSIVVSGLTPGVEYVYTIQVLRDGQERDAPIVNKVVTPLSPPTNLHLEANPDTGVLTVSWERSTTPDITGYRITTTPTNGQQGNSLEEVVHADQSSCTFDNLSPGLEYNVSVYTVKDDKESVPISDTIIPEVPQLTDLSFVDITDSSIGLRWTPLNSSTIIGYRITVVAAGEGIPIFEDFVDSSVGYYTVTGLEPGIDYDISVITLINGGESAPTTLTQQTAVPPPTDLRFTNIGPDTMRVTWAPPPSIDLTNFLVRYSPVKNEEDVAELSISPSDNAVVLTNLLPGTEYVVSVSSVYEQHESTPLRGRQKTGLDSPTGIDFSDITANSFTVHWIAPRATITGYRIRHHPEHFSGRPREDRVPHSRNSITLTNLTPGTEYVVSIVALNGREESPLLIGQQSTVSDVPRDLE
- ASSAY: ELISA

Examples from the recorded data:
BINDER | ASSAY ENDPOINT | REPORTED MEASUREMENT
PMCTQRKNRIRLCRRDSDCTGACICRGNGYCG (designed binder) [Trx-MC-FN-010, Thioredoxin-A fusion of cystine-knot miniprotein MC-FN-010] | Kd | 10.5 nM
SVCAHYNTIRVRLCRRDSDCPGACICRGNGYCG (designed binder) [Trx-MC-FN-040, Thioredoxin-A fusion of cystine-knot miniprotein MC-FN-040] | Kd | 29.4 nM
WKCQPTNGYRIRCRRDSDCPGDCICRGNGYCG (designed binder) [Trx-MC-FN-030, Thioredoxin-A fusion of cystine-knot miniprotein MC-FN-030] | Kd | 232 nM
SVCKNVSIMRIRLCRRDSDCPGACICRGNGYCG (designed binder) [Trx-MC-FN-050, Thioredoxin-A fusion of cystine-knot miniprotein MC-FN-050] | Kd | 67.8 nM

For the next question, use this binder.
Short answer for SVCKQANFVRIRLCRRDSDCPGACICRGNGYCG (designed binder) [Trx-MC-FN-060, Thioredoxin-A fusion of cystine-knot miniprotein MC-FN-060] : Kd was 20.4 nM
